assay text: MTT cell viability assay on A549
conditions used: human, A549 cells
readout: viability at 6 h, 25 µM

Dear colleague, please send me the reported viability at 6 h, 25 µM for COc1ccc(Cc2nnc(SC3=CS(=O)(=O)c4ccccc43)o2)cc1 [C11] when you can.
> 90%

---

tgt: FtsZPa (Pseudomonas aeruginosa, UniProt P47204)
Sequence (P47204 whole entry): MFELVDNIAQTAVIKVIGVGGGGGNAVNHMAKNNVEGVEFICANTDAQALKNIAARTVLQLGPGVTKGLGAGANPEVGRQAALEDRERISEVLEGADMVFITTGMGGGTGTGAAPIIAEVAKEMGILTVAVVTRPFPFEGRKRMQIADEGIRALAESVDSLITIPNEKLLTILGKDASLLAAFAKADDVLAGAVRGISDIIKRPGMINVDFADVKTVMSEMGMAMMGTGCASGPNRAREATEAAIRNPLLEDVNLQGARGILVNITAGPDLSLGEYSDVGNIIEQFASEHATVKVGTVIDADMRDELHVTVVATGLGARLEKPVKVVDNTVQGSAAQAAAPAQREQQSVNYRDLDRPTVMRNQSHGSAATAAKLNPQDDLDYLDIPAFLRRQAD
assay text: FtsZPa polymerization assay
readout: IC50 (µM)
Numbers only, in µM.

Identify measured IC50 obtained with FtsZPa (Pseudomonas aeruginosa, UniProt P47204) for COc1ccc(Cc2nnc(SC3=CS(=O)(=O)c4ccccc43)o2)cc1 .
34

---

Kindly supply the reported Residual GTPase activity values for the records listed here.
tgt: S. aureus FtsZ protein (FtsZSa) (Staphylococcus aureus, UniProt P0A031)
Construct: made in house; host or cells: Escherichia coli BL21DE3
Sequence (P0A031 1-390): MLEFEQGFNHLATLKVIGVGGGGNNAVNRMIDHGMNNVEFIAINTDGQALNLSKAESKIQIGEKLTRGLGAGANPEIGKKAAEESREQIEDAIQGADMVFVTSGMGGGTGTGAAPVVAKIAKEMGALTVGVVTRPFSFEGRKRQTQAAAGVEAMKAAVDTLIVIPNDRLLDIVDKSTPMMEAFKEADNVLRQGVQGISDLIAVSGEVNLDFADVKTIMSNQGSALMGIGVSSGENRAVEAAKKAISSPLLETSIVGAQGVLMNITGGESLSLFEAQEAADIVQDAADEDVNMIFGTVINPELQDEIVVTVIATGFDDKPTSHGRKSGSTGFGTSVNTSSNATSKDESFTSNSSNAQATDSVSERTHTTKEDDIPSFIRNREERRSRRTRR
assay text: In vitro FtsZ GTPase activity (PK/LDH coupled assay)
Type: biochemical
Parameters: concentration or dose not given beside the values
conditions used: S. aureus FtsZ protein
Numbers only, in %.

[[record]]
compound = "COc1ccccc1-c1cc(C(=O)NCC(N)=O)[nH]n1"
tgt = "S. aureus FtsZ protein (FtsZSa) (Staphylococcus aureus, UniProt P0A031)"
experimental_value = 95.3

[[record]]
compound = "Cc1ccc(-c2nnc(Nc3cccc(O)c3)c3ccccc23)cc1S(N)(=O)=O"
tgt = "S. aureus FtsZ protein (FtsZSa) (Staphylococcus aureus, UniProt P0A031)"
experimental_value = 34.3

[[record]]
compound = "COc1ccc(CC(=O)Nc2cccc(C(N)=O)c2)cc1"
tgt = "S. aureus FtsZ protein (FtsZSa) (Staphylococcus aureus, UniProt P0A031)"
experimental_value = 11.8

[[record]]
compound = "CC(O)c1ccc(C2(CNC(=O)c3ccc(C(F)(F)F)nc3)CCCC2)s1 (stereo not shown)"
tgt = "S. aureus FtsZ protein (FtsZSa) (Staphylococcus aureus, UniProt P0A031)"
experimental_value = 35.5

[[record]]
compound = "NC(=O)c1cc(OC2CN(C(=O)Nc3ccccc3F)C2)ccn1"
tgt = "S. aureus FtsZ protein (FtsZSa) (Staphylococcus aureus, UniProt P0A031)"
experimental_value = 92.8

[[record]]
compound = "COc1ccc(Cc2nnc(SC3=CS(=O)(=O)c4ccccc43)o2)cc1"
tgt = "S. aureus FtsZ protein (FtsZSa) (Staphylococcus aureus, UniProt P0A031)"
experimental_value = 82.2


Please turn your attention to the following entry.
Write down measured Residual GTPase activity (S. aureus FtsZ protein (FtsZSa) (Staphylococcus aureus, UniProt P0A031)) for this compound. COC(=O)c1ccc(CSc2ccc(-c3ccc4c(c3)OCO4)nn2)o1
78.5

---

tgt: FtsZSa (Staphylococcus aureus)
Sequence (P0A031 1-390): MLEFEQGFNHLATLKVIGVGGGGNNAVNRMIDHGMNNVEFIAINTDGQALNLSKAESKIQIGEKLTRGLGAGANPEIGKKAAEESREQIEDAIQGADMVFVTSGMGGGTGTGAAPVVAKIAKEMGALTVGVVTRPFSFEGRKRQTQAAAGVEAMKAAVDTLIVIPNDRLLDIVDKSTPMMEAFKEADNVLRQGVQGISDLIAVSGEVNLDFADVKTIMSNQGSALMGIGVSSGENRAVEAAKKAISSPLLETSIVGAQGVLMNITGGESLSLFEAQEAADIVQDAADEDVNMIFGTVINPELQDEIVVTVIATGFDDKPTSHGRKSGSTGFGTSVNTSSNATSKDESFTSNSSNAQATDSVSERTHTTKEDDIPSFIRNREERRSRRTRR
Binarize IC50 at 40 µM; below is criterion met, at or above is criterion not met.

[[record]]
compound = "O=S1(=O)C=C(Sc2nnc(-c3ccccc3)o2)c2ccccc21 [C11.2]"
tgt = "FtsZSa (Staphylococcus aureus)"
classification = "criterion met"

[[record]]
compound = "O=C(Oc1ccc(NC2=NS(=O)(=O)c3ccccc32)cc1)c1ccccc1 [C11.1]"
tgt = "FtsZSa (Staphylococcus aureus)"
classification = "criterion not met"

[[record]]
compound = "CCc1sc(NC2=NS(=O)(=O)c3ccccc32)nc1-c1ccccc1 [C11.7]"
tgt = "FtsZSa (Staphylococcus aureus)"
classification = "criterion met"

[[record]]
compound = "COc1ccc(Cc2nnc(SC3=CS(=O)(=O)c4ccccc43)o2)cc1 [C11]"
tgt = "FtsZSa (Staphylococcus aureus)"
classification = "criterion not met"

[[record]]
compound = "O=S1(=O)N=C(Nc2nc(-c3ccccc3)cs2)c2ccccc21 [C11.5]"
tgt = "FtsZSa (Staphylococcus aureus)"
classification = "criterion met"


Please determine if Cc1occc1-c1nnc(SC2=CS(=O)(=O)c3ccccc32)o1 [C11.8] is below 40 µM in terms of IC50.
criterion not met

Determine if CCOc1ccc(NC(=O)CN2C(=O)c3ccccc3S2(=O)=O)cc1 [C11.4] shows IC50 strictly lower than 40 µM.
criterion not met

---

assay text: MTT cell viability assay on CFBE41o-
conditions used: human, CFBE41o- cells
readout: viability at 24 h, 25 µM (%)
One number for each entry, in %.

Report viability at 24 h, 25 µM, nothing else, for this compound: COc1ccc(Cc2nnc(SC3=CS(=O)(=O)c4ccccc43)o2)cc1 [C11]
25

---

Tested on: S. aureus ATCC25923
assay text: Checkerboard assay of C11 with antibiotics
Format: cell-based
conditions used: antibiotic combined with C11
readout: Effect of the combination with C11

Worked cases, answers included:
[[record]]
molecule = "CC(C)(O/N=C(\\C(=O)N[C@@H]1C(=O)N2C(C(=O)[O-])=C(C[n+]3ccccc3)CS[C@H]12)c1csc(N)n1)C(=O)O [Ceftazidime, reference compound]"
readout = "Effect of the combination with C11"
experimental_value = "synergistic effect"

[[record]]
molecule = "CN(C)[C@@H]1C(O)=C(C(N)=O)C(=O)[C@@]2(O)C(O)=C3C(=O)c4c(O)cccc4[C@@](C)(O)[C@H]3C[C@@H]12 [Tetracycline, reference compound]"
readout = "Effect of the combination with C11"
experimental_value = "additive effect"

[[record]]
molecule = "CC[C@H]1OC(=O)[C@H](C)[C@@H](O[C@H]2C[C@@](C)(OC)[C@@H](O)[C@H](C)O2)[C@H](C)[C@@H](O[C@@H]2O[C@H](C)C[C@H](N(C)C)[C@H]2O)[C@](C)(O)C[C@@H](C)C(=O)[C@H](C)[C@@H](O)[C@]1(C)O [Erythromycin, reference compound]"
readout = "Effect of the combination with C11"
experimental_value = "additive effect"

[[record]]
molecule = "CO[C@H]1/C=C/O[C@@]2(C)Oc3c(C)c(O)c4c(O)c(c(/C=N/N5CCN(C)CC5)c(O)c4c3C2=O)NC(=O)/C(C)=C\\C=C\\[C@H](C)[C@H](O)[C@@H](C)[C@@H](O)[C@@H](C)[C@H](OC(C)=O)[C@@H]1C [Rifampicin, reference compound]"
readout = "Effect of the combination with C11"
experimental_value = "synergistic effect"

[[record]]
molecule = "C[C@@H](O)[C@H]1C(=O)N2C(C(=O)O)=C(S[C@@H]3CN[C@H](C(=O)N(C)C)C3)[C@H](C)[C@H]12 [Meropenem, reference compound]"
readout = "Effect of the combination with C11"
experimental_value = "synergistic effect"


# input for lookup
Given the molecule CC(=O)NC[C@H]1CN(c2ccc(N3CCOCC3)c(F)c2)C(=O)O1 [Linezolid, reference compound] , write its reported Effect of the combination with C11.
additive effect

---

assay text: MTT cell viability assay on CFBE41o-
conditions used: human, CFBE41o- cells
readout: viability at 6 h, 25 µM (%)
Answers are plain numbers, in %.

Name the recorded viability at 6 h, 25 µM of the item COc1ccc(Cc2nnc(SC3=CS(=O)(=O)c4ccccc43)o2)cc1 in your answer.
65

---

Test system: S. aureus ATCC25923
Label key: fulfilled means MIC under 2 µg/mL; not fulfilled means MIC of 2 µg/mL or more.

// known answers, use as guide
[[record]]
molecule = "O=S1(=O)N=C(Nc2nc(-c3ccccc3)cs2)c2ccccc21 [C11.5]"
classification = "not fulfilled"

[[record]]
molecule = "Cc1occc1-c1nnc(SC2=CS(=O)(=O)c3ccccc32)o1 [C11.8]"
classification = "not fulfilled"

[[record]]
molecule = "CN(C)[C@@H]1C(O)=C(C(N)=O)C(=O)[C@@]2(O)C(O)=C3C(=O)c4c(O)cccc4[C@@](C)(O)[C@H]3C[C@@H]12 [Tetracycline, reference compound]"
classification = "fulfilled"

[[record]]
molecule = "O=S1(=O)N=C(Nc2nc3c(s2)CCCC3)c2ccccc21 [C11.3]"
classification = "not fulfilled"

[[record]]
molecule = "CCOc1ccc(NC(=O)CN2C(=O)c3ccccc3S2(=O)=O)cc1 [C11.4]"
classification = "not fulfilled"


Lab note: confirm whether the reported MIC for this molecule is below 2 µg/mL, equality not counting. molecule: CCc1sc(NC2=NS(=O)(=O)c3ccccc32)nc1-c1ccccc1 [C11.7]
not fulfilled

# TODO verify MIC < 2 µg/mL strictly for this molecule: Cc1ccc(-c2nnc(SC3=CS(=O)(=O)c4ccccc43)o2)cc1 [C11.11]
not fulfilled

All figures here come from paper PMC11998009.
